# recorded-conditions: in acetone, 308.08 K
attribute-measured: solubility (mole fraction)
Note: the reply should be a number with no unit written.

Q: Requested read-out: solubility (mole fraction). Entry: Cn1cnc2c1c(=O)[nH]c(=O)n2C
Ans: 2.99e-05

###

# recorded-conditions: in n-propanol, 328.09 K
attribute-measured: solubility (mole fraction)
Note: the reply should be a number with no unit written.

Q: Requested read-out: solubility (mole fraction). Entry: Cn1c(=O)c2[nH]cnc2n(C)c1=O
Ans: 0.00423

###

# recorded-conditions: in methanol, 288.07 K
attribute-measured: solubility (mole fraction)
Note: the reply should be a number with no unit written.

Q: Requested read-out: solubility (mole fraction). Entry: Cn1cnc2c1c(=O)[nH]c(=O)n2C
Ans: 2.82e-05

Data origin, for the record: BigSolDB 2.1
